- experimental_system: ATP-dependent molecular chaperone HSC82 (Saccharomyces cerevisiae S288c, UniProt P15108)
- Sequence (P15108 whole entry): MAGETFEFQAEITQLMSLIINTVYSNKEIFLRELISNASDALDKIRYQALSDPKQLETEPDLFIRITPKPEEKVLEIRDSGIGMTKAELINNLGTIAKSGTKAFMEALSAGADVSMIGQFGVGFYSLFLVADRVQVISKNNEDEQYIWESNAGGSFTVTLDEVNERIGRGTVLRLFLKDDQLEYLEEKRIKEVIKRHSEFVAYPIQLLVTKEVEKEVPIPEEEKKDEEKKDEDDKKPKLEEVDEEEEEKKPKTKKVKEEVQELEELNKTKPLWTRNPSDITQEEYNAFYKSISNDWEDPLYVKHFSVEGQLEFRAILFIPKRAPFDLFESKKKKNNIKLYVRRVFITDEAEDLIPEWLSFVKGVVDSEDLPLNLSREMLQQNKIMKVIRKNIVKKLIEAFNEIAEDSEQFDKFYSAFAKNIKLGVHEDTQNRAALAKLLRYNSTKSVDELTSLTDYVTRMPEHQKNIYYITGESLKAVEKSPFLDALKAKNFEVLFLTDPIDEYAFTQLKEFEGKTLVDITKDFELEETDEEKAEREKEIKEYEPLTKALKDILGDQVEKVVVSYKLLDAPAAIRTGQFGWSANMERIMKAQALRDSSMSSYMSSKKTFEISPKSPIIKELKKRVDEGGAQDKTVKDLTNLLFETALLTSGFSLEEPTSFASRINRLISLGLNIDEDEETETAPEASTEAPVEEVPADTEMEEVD
Please assign Not satisfied whenever IC50 is at or above 2 µM, and Satisfied whenever it is below.

1) Cc1n[nH]c(-c2ccc(O)cc2O)c1-c1ccc2c(c1)OCCO2	Not satisfied
2) CNC(=O)c1[nH]nc(-c2cc(Cl)c(O)cc2O)c1-c1ccc(OC)cc1	Satisfied
3) C=CCNC1=C2C[C@@H](C)C[C@H](OC)[C@H](O)[C@@H](C)/C=C(\C)[C@H](OC(N)=O)[C@@H](OC)/C=C\C=C(/C)C(=O)NC(=CC1=O)C2=O	Not satisfied
4) COc1ccc(-c2c(-c3cc(Cl)c(O)cc3O)n[nH]c2C(=O)O)cc1	Not satisfied
5) CCc1cc(-c2n[nH]c(C)c2-c2ccc3c(c2)OCCO3)c(O)cc1O	Not satisfied
6) C[C@@H]1C[C@H]2O[C@@H]2/C=C\C=C\C(=O)Cc2c(Cl)c(O)cc(O)c2C(=O)O1	Satisfied
7) COc1ccc(-c2c(-c3ccc(O)cc3O)n[nH]c2C)cc1	Not satisfied
8) COc1ccc(-c2c(-c3cc(Cl)c(O)cc3O)n[nH]c2C(N)=O)cc1	Satisfied
9) COc1ccc(-c2c(C)n[nH]c2-c2cc(Br)c(O)cc2O)cc1	Satisfied
10) COc1ccc(-c2c(-c3cc(Cl)c(O)cc3O)n[nH]c2C(=O)NC(C)C)cc1	Satisfied
11) Cc1[nH]nc(-c2cc(Cl)c(O)cc2O)c1-c1ccc2c(c1)OCCO2	Satisfied
12) COc1ccc(-c2c(C)n[nH]c2-c2cc(Cl)c(O)cc2O)cc1	Satisfied
13) CCNC(=O)c1[nH]nc(-c2cc(Br)c(O)cc2O)c1-c1ccc(OC)cc1	Satisfied
